Cited source for all entries: the supplement of paper PMC10567573

B1: HESX1 (parent)
chain: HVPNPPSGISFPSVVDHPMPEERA

Variants of: B1
Test: protein stability index of a GFP-peptide fusion (GPS, HEK-293T) (PSI 1-6); higher = more stable;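 also: lentivirally expressed fusions sorted by FACS into six bins by GFP to DsRed ratio, PSI derived from sequencing read proportions per bin multiplied by bin number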
Settings: c terminus: a fixed tail appended
Classification field: YES = protein stability index at or over 3; NO = protein stability index under 3.

[[record]]
seq_string = "HVPNPPSGISFPSVVDHDMPEERA"
assigned_label = "NO"

[[record]]
seq_string = "HVPNPPSGISFPSVVDVPMPEERA"
assigned_label = "NO"

[[record]]
seq_string = "HVINPPSGISFPSVVDHPMPEERA"
assigned_label = "YES"


Problem: Does protein stability index meet or surpass 3 for `HVPNPPSGISFPSVVDHPMPEEVA` ?
Result: NO

Problem: Do the same for `HVPNPPSGISFPSVVDHPQPEERA` please
Result: YES

Problem: Do the same for `HVPNPPSGISFPSVVDHPMSEERA` please
Result: NO

Problem: Do the same for `HVPNPPSGISFPSDVDHPMPEERA` please
Result: YES

Problem: Do the same for `HVPNPPSGISFPSVVDHPMYEERA` please
Result: NO

Problem: Do the same for `HVPNPRSGISFPSVVDHPMPEERA` please
Result: NO

Problem: Do the same for `HVPNPPSGISCPSVVDHPMPEERA` please
Result: YES

Problem: Do the same for `HVSNPPSGISFPSVVDHPMPEERA` please
Result: YES

Problem: Do the same for `HVPSPPSGISFPSVVDHPMPEERA` please
Result: NO

Problem: Do the same for `HVPNPPSGISFPSVVDHRMPEERA` please
Result: NO

Problem: Do the same for `HVPVPPSGISFPSVVDHPMPEERA` please
Result: NO

Problem: Do the same for `HVPNPPSGIEFPSVVDHPMPEERA` please
Result: YES

Problem: Do the same for `HVPNPPCGISFPSVVDHPMPEERA` please
Result: NO

Problem: Do the same for `HVPNPPSGISFPSVDDHPMPEERA` please
Result: YES

Problem: Do the same for `HVPNPPSGISFPSAVDHPMPEERA` please
Result: YES

Problem: Do the same for `HVPNPPSGISFPSVVDGPMPEERA` please
Result: NO

Problem: Do the same for `HVPNPPSGISFPSVVDHPMPEERR` please
Result: NO

Problem: Do the same for `TVPNPPSGISFPSVVDHPMPEERA` please
Result: YES

Problem: Do the same for `HVPNPPSGISFPSVVDHPMPMERA` please
Result: NO

Problem: Do the same for `HVPNPPSGISFPSMVDHPMPEERA` please
Result: YES

Problem: Do the same for `WVPNPPSGISFPSVVDHPMPEERA` please
Result: YES
